Each record here notes measured cAMP Emax (1.0% HSA).
Molecular target: human GLP-1 receptor (human, UniProt P43220 24-463)
Assay: cell-based or functional assay
Form entry: value (%) — number only.

BINDER: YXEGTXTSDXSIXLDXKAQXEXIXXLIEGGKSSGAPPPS (Aib2, αMeF(2F)6, 4Pal10, αMeL13, Orn16, Aib20, 3FPhe22, D-Glu24, αMeY25; acylated K17, K31 (groups as in name); C-terminal amide)
UNIT_ABBREV: %
cAMP Emax (1.0% HSA): 87.8
--
BINDER: YXEGTXTSDVXIXLDXKAQXEFIXXLIEGGKSSGAPPPS (Aib2, αMeF(2F)6, αMeS11, αMeL13, Orn16, Aib20, D-Glu24, αMeY25; acylated K17, K31 (groups as in name); C-terminal amide)
UNIT_ABBREV: %
cAMP Emax (1.0% HSA): 91
--
BINDER: YXEGTXTSDXSIXLDXKAQXEFIXXLIXGGKSSGAPPPS (Aib2, αMeF(2F)6, 4Pal10, αMeL13, Orn16, Aib20, D-Glu24, αMeY25, Orn28; acylated K17, K31 (groups as in name); C-terminal amide)
UNIT_ABBREV: %
cAMP Emax (1.0% HSA): 112
--
BINDER: YXEGTXTSDXSIXLDXKAQXEFIXXLIEGGKSSGAPPPX (Aib2, αMeF(2F)6, 4Pal10, αMeL13, Orn16, Aib20, D-Glu24, αMeY25, Orn39; acylated K17, K31 (groups as in name); C-terminal amide)
UNIT_ABBREV: %
cAMP Emax (1.0% HSA): 103

Consider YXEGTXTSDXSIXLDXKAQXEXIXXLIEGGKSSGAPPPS (Aib2, αMeF(2F)6, 4Pal10, αMeL13, Orn16, Aib20, 2Nal22, D-Glu24, αMeY25; acylated K17, K31 (groups as in name); C-terminal amide) . Its measured cAMP Emax (1.0% HSA) is 81.1

Consider YXEGTXTSDVSIXLDXKAQXEFIXXLIEGGKSSGAPPPS (Aib2, αMeF(2F)6, αMeL13, Orn16, Aib20, D-Glu24, αMeY25; acylated K17, K31 (groups as in name); C-terminal amide) . Its measured cAMP Emax (1.0% HSA) is 96.6

Consider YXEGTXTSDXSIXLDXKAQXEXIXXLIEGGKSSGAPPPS (Aib2, αMeF(2F)6, 4Pal10, αMeL13, Orn16, Aib20, 3ClPhe22, D-Glu24, αMeY25; acylated K17, K31 (groups as in name); C-terminal amide) . Its measured cAMP Emax (1.0% HSA) is 85.8

Consider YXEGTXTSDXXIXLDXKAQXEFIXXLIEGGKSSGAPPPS (Aib2, αMeF(2F)6, 4Pal10, αMeS11, αMeL13, Orn16, Aib20, D-Glu24, αMeY25; acylated K17, K31 (groups as in name); C-terminal amide) . Its measured cAMP Emax (1.0% HSA) is 102

Consider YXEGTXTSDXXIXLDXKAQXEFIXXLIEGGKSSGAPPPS (Aib2, αMeF(2F)6, 4Pal10, Ac5c11, αMeL13, Orn16, Aib20, D-Glu24, αMeY25; acylated K17, K31 (groups as in name); C-terminal amide) . Its measured cAMP Emax (1.0% HSA) is 99

Consider YXEGTXTSDXSIXLDXIAQXEFIKXLIEGGPSSGAPPPSK (Aib2, αMeF(2F)6, 4Pal10, αMeL13, Orn16, Aib20, αMeY25; acylated K24, K40 (groups as in name); C-terminal amide) . Its measured cAMP Emax (1.0% HSA) is 109

Consider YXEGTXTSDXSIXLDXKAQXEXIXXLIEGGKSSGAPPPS (Aib2, αMeF(2F)6, 4Pal10, αMeL13, Orn16, Aib20, 2FPhe22, D-Glu24, αMeY25; acylated K17, K31 (groups as in name); C-terminal amide) . Its measured cAMP Emax (1.0% HSA) is 98

Consider YXEGTXTSDXSIXLDXIAQXEFIXXLIKGGPSSGAPPPSK (Aib2, αMeF(2F)6, 4Pal10, αMeL13, Orn16, Aib20, D-Glu24, αMeY25; acylated K28, K40 (groups as in name); C-terminal amide) . Its measured cAMP Emax (1.0% HSA) is 98.1

Consider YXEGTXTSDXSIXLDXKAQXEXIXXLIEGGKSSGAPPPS (Aib2, αMeF(2F)6, Ac5c10, αMeL13, Orn16, Aib20, αMeF22, D-Glu24, αMeY25; acylated K17, K31 (groups as in name); C-terminal amide) . Its measured cAMP Emax (1.0% HSA) is 113

Consider YXEGTXTSDVSIXLDXKAQXEXIXXLIEGGKSSGAPPPS (Aib2, αMeF(2F)6, αMeL13, Orn16, Aib20, αMeF22, D-Glu24, αMeY25; acylated K17, K31 (groups as in name); C-terminal amide) . Its measured cAMP Emax (1.0% HSA) is 108

Consider YXEGTXTSDXXIXLDXIAQXKFIXXLIKGGPSSGAPPPS (Aib2, αMeF(2F)6, 4Pal10, αMeS11, αMeL13, Orn16, Aib20, D-Glu24, αMeY25; acylated K21, K28 (groups as in name); C-terminal amide) . Its measured cAMP Emax (1.0% HSA) is 118
